# tested_on: recombinant full-length human hydroxyacid oxidase 1 (HAO1), the equivalent of hGOX (Homo sapiens (Human))
# Sequence (Q9UJM8 whole entry): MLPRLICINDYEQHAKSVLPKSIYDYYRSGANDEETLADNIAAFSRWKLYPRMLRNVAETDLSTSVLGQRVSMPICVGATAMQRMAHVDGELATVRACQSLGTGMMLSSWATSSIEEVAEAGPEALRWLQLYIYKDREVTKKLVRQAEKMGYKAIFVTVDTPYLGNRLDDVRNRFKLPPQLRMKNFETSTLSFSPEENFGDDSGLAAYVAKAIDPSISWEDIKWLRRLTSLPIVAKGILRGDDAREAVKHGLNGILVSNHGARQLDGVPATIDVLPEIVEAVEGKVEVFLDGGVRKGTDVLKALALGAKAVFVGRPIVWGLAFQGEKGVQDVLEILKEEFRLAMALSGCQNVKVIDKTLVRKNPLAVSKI
# experiment_summary: In-vitro human glycolate oxidase (hGOX) assay (Amplex red/HRP fluorescence)
# Assay type: biochemical
# assay_setup: 12.5 nM HAO1, 85 μM glycolate, 2.5% DMSO; read-out: IC50
pIC50: −log10 of the molar value.
readout_label: pIC50

O=C(O)c1nn[nH]c1Sc1ccc(Br)cc1 | 7.15
CCc1ccc(Oc2[nH]nnc2C(=O)O)cc1 | 7.47
O=C(O)c1nn[nH]c1Oc1ccc(F)c(Cl)c1 | 7.57
Cc1ccc(Oc2[nH]nnc2C(=O)O)cc1C | 7.25

(A) O=C(O)c1nn[nH]c1Sc1ccccc1Cl
(B) COc1ccc(Nc2[nH]nnc2C(=O)O)cc1
# query: argmin of pIC50 over A and B Refer to your chosen item by its label in the answer.
B
(B: 5.19, A: 6.57)

###

# experiment_summary: Solubility in phosphate buffered saline (PBS), pH 7.4
# Assay type: physicochemical
# assay_setup: phosphate buffer (PBS), aqueous buffer, kinetic from dmso stock; phosphate buffered saline pH 7.4, 1% DMSO, 1 hour shaking at room temperature
# Procedure: For testing compound solubility in phosphate buffered saline (PBS), compound stock solutions were prepared at 10 mM in 100% DMSO. For testing in aqueous solution, the phosphate buffer was replaced with deionized, distilled water. Eleven grams Na2HPO4 (FW: 141.96 g/mol) and 3.5 g NaH2PO4.2H2O (FW: 156.03 g/mol) was added to 1 L Milli-Q water and adjusted to a pH to 7.4 with phosphoric acid or sodium hydroxide. For incubation, media were preheated to 37° C. […]
readout_label: solubility at 1 h (µM)

O=C(O)c1nn[nH]c1Oc1ccc(-c2ccccc2)nc1 | 106
O=C(O)c1nn[nH]c1Sc1ccc(Cl)cc1 | 94.5
O=C(O)c1nn[nH]c1Oc1cccc(-c2ccccc2)c1 | 103

###

# experiment_summary: Metabolic stability in human liver microsomal preparation
# Format: in vitro ADME
# assay_setup: pH 7.4; human liver microsomes, NADPH, 37° C., 0-45 min; read-out: Metabolic Stability t1/2
readout_label: half-life at 1 μM (h)

# example entries with known answers
O=C(O)c1[nH]nnc1Oc1ccc(C2CCCCC2)cc1 | 1.1
O=C(O)c1nn[nH]c1Oc1ccc(-c2ccc(F)cc2)cc1 | 4.14

(I) O=C(O)c1nn[nH]c1Oc1ccc(-c2ccccc2F)cc1
(II) O=C(O)c1nn[nH]c1Oc1cccc(C2CCC2)c1
# query: argmin of half-life at 1 μM over I and II Refer to your chosen item by its label in the answer.
II

(P) CC(C)=Cc1cccc(Oc2[nH]nnc2C(=O)O)c1
(Q) O=C(O)c1nn[nH]c1Oc1ccc(-c2ccc3c(c2)OCO3)cc1
(R) COc1cc(-c2ccc(Oc3[nH]nnc3C(=O)O)cc2)ccc1F
Reorder: half-life at 1 μM, max to min. # format: label list in the order the request specifies
R, Q, P

###

# experiment_summary: Stability in human plasma
# Assay type: in vitro ADME
# assay_setup: read-out: Plasma Stability T1/2
readout_label: half-life at 2 μM (h)

# example entries with known answers
O=C(O)c1nn[nH]c1Oc1ccc(-c2ccccc2)cc1 | 0.747
O=C(O)c1nn[nH]c1Oc1cncc(-c2cccnc2)c1 | 1.72
O=C(O)c1nn[nH]c1Oc1cccc(-c2ccc3ccccc3c2)c1 | 0.985

(P) O=C(O)c1nn[nH]c1Oc1ccc(-c2ccccc2)nc1
(Q) COc1cc(-c2ccc(Oc3[nH]nnc3C(=O)O)cc2)ccc1F
Which of the two items, P and Q , has the greater recorded half-life at 2 μM? Refer to your chosen item by its label in the answer.
Q

###

# experiment_summary: Stability in human plasma
# Format: in vitro ADME
# assay_setup: read-out: Plasma Stability T1/2
readout_label: half-life at 2 μM (h)

O=C(O)c1nn[nH]c1Oc1cccc(-c2ccncc2)c1 [Example I-260] | 1.79
O=C(O)c1[nH]nnc1Oc1ccc(-c2ccc(Cl)c(Cl)c2)cc1 [Example I-171] | 1.93
O=C(O)c1nn[nH]c1Oc1ccc(C2CCCC2)cc1 [Example I-265] | 1.44

###

# experiment_summary: Solubility in phosphate buffered saline (PBS), pH 7.4
# Format: physicochemical
# assay_setup: phosphate buffer (PBS), aqueous buffer, kinetic from dmso stock; phosphate buffered saline pH 7.4, 1% DMSO, 1 hour shaking at room temperature
# Method: For testing compound solubility in phosphate buffered saline (PBS), compound stock solutions were prepared at 10 mM in 100% DMSO. For testing in aqueous solution, the phosphate buffer was replaced with deionized, distilled water. Eleven grams Na2HPO4 (FW: 141.96 g/mol) and 3.5 g NaH2PO4.2H2O (FW: 156.03 g/mol) was added to 1 L Milli-Q water and adjusted to a pH to 7.4 with phosphoric acid or sodium hydroxide. For incubation, media were preheated to 37° C. […]
readout_label: solubility at 1 h (µM)

CC(C)=Cc1ccc(Oc2[nH]nnc2C(=O)O)cc1 [Example I-287] | 85.7
CS(=O)(=O)c1ccc(-c2ccc(Oc3[nH]nnc3C(=O)O)cc2)cc1 [Example I-167] | 116
O=C(O)c1nn[nH]c1Oc1ccc(-c2ccc3c(c2)OCO3)cc1 [Example I-304] | 111
C#Cc1cccc(Oc2[nH]nnc2C(=O)O)c1 [Example I-288] | 92.4
O=C(O)c1nn[nH]c1Oc1ccc(-c2ccc(F)cc2)cc1 [Example I-160] | 101
O=C(O)c1nn[nH]c1Oc1cccc(-c2ccc3ccccc3c2)c1 [Example I-178] | 97.9
O=C(O)c1nn[nH]c1Oc1ccc(C2CC2)cc1 [Example I-294] | 108
Cc1ccc(-c2ccc(Sc3[nH]nnc3C(=O)O)cc2)cc1 [Example I-129] | 116
O=C(O)c1nn[nH]c1Oc1cccc(S(F)(F)(F)(F)F)c1 [Example I-269] | 109
CCC(CC)c1ccc(Oc2[nH]nnc2C(=O)O)cc1 [Example I-272] | 103

###

# tested_on: recombinant full-length human hydroxyacid oxidase 1 (HAO1), the equivalent of hGOX (Homo sapiens (Human))
# experiment_summary: In-vitro human glycolate oxidase (hGOX) assay (Amplex red/HRP fluorescence)
# Format: biochemical
readout_label: IC50 (nM)

# example entries with known answers
O=C(O)c1nn[nH]c1Oc1ccc(C2CCC2)cc1 | 22
O=C(O)c1nn[nH]c1Oc1cccc(-c2ccccc2)c1 | 19
O=C(O)c1[nH]nnc1Oc1ccc(C2CCCCC2)cc1 | 30
O=C(O)c1nn[nH]c1Oc1ccc(-c2ccc3c(c2)OCO3)cc1 | 4
O=C(O)c1[nH]nnc1Oc1ccc(Cl)c(Cl)c1 | 12
CS(=O)(=O)c1ccc(-c2ccc(Oc3[nH]nnc3C(=O)O)cc2)cc1 | 8
O=C(O)c1[nH]nnc1Oc1ccc(-c2ccc(Cl)cc2)cc1 | 17
C#Cc1cccc(Oc2[nH]nnc2C(=O)O)c1 | 24
O=C(O)c1nn[nH]c1Oc1cccc(-c2cc(Cl)cc(Cl)c2)c1 | 3
CCC(CC)c1ccc(Oc2[nH]nnc2C(=O)O)cc1 | 84

(A) O=C(O)c1nn[nH]c1Oc1ccc(-c2ccccc2)nc1
(B) O=C(O)c1nn[nH]c1Oc1ccc(-c2ccccc2)cc1
(C) CC(C)=Cc1cccc(Oc2[nH]nnc2C(=O)O)c1
(D) O=C(O)c1nn[nH]c1Sc1ccc2ccccc2c1
Could you please order the items by IC50, going from the lowest number to the highest? # format: label list in the order the request specifies
C, B, D, A
(C: 14 nM, B: 23 nM, D: 69 nM, A: 141 nM)

###

# experiment_summary: Solubility in aqueous solution (deionized, distilled water)
# Assay type: physicochemical
# assay_setup: kinetic from dmso stock, 1% DMSO, read-out: Aqueous Solubility H2O
readout_label: solubility at 1 h (µM)

O=C(O)c1nn[nH]c1Oc1ccc(-c2ccc(F)cc2)cc1 | 64.6
O=C(O)c1nn[nH]c1Oc1cccc(-c2cccc(Cl)c2)c1 | 91.7
Cc1cc(Oc2[nH]nnc2C(=O)O)ccc1Br | 96.1
C=Cc1ccc(Oc2[nH]nnc2C(=O)O)cc1 | 97.6
O=C(O)c1nn[nH]c1Oc1cccc(C2CCCCC2)c1 | 111
O=C(O)c1nn[nH]c1Oc1ccc(-c2ccc3c(c2)OCO3)cc1 | 115
O=C(O)c1nn[nH]c1Oc1ccc(Cl)cc1 | 108
CS(=O)(=O)c1ccc(-c2cccc(Oc3[nH]nnc3C(=O)O)c2)cc1 | 89.8

###

# experiment_summary: Solubility in aqueous solution (deionized, distilled water)
# Assay type: physicochemical
# assay_setup: kinetic from dmso stock, 1% DMSO, read-out: Aqueous Solubility H2O
readout_label: solubility at 1 h (µM)

O=C(O)c1nn[nH]c1Oc1cccc(S(F)(F)(F)(F)F)c1 [Example I-269] | 103
O=C(O)c1nn[nH]c1Oc1cccc(C2CCCC2)c1 [Example I-267] | 82.6
CCC(CC)c1ccc(Oc2[nH]nnc2C(=O)O)cc1 [Example I-272] | 96.6
O=C(O)c1nn[nH]c1Oc1cccc(C2CCC2)c1 [Example I-279] | 111
